Below, each entry is listed alongside its reported protein stability index.
B1: INTS4 (parent)
chain: IRLVDDAFGKICHMVSDGSWVVRV

Variants of: B1
Test: protein stability index of a GFP-peptide fusion (GPS, HEK-293T) (PSI 1-6); higher = more stable;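 note: lentivirally expressed fusions sorted by FACS into six bins by GFP to DsRed ratio, PSI derived from sequencing read proportions per bin multiplied by bin number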
Conditions: c terminus: a fixed tail appended
Answer with the value's number alone.

IRLVDDAFGKICHMVWDGSWVVRV [S16W] ... 1.91
IRHVDDAFGKICHMVSDGSWVVRV [L3H] ... 2.17
IRLVDDAHGKICHMVSDGSWVVRV [F8H] ... 2.19
IRLVYDAFGKICHMVSDGSWVVRV [D5Y] ... 3.78
IRLVTDAFGKICHMVSDGSWVVRV [D5T] ... 3.23

Now look at this one.
Qu. Report protein stability index for IRLVDDAFGKICHMVSAGSWVVRV [D17A]
Ans. 3.62
